- testTarget: Follistatin-related protein 3 (Homo sapiens)
- testMethodNotes: FSTL3 binders on small-molecule microarrays, primary screen, biochemical, small-molecule microarray, 635 nm fluorescence (AID 1105);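 also: score merges emission near 667 nm and signal to noise per printed spot across three slides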
- runConditions: FSTL3 binding, higher = more signal
Use 1 when the recorded composite z-score is no lower than 0.3; use -1 when it is lower.

Exam item: decide whether the reported composite z-score for O=C1O[C@@H](c2ccccc2)[C@@H](c2ccccc2)N2[C@@H](c3ccc(O)cc3)[C@]3(C(=O)Nc4ccc(C#CCCO)cc43)[C@@H](C(=O)Nc3nc4ccccc4s3)[C@H]12 is at least 0.3.
1

Check CN1C(=O)C2C=CC(C(O)Cc3ccccc3)N(N(c3ccccc3)c3ccccc3)C2C1=O (stereo not drawn) too.
-1

Check COc1ccc([Si](C)(C)[C@H]2[C@H](CCn3cc([C@H](O)c4ccccc4)nn3)O[C@@]3(C(=O)N(Cc4cccc(N5C(=O)c6cccc7cccc5c67)c4)c4ccccc43)[C@@H]2C)cc1 too.
-1

Check CC(=O)n1cc(C(O)C2C=CC3C(=O)N(Cc4ccccc4)C(=O)C3N2n2cnnc2)c2ccccc21 (stereo not drawn) too.
-1

Check COc1ccc(NC(=O)O[C@H]2[C@H](OC(=O)Nc3ccc4c(c3)OCO4)[C@@H](OC(=O)Nc3ccc4c(c3)OCO4)[C@@H](OC)O[C@@H]2CO)cc1 too.
1

Check CCOC(=O)C[C@H]1[C@H](OC(=O)Cc2ccc3c(c2)OCO3)[C@@H](NC(=O)Cc2ccc(OC)cc2)c2cc(OCCCO)ccc2N1C(=O)c1ccccc1 too.
1

Check O=C1C2C=CC(C(O)c3cc(C(F)(F)F)cc(C(F)(F)F)c3)N(Nc3ccc([N+](=O)[O-])cc3)C2C(=O)N1c1ccccc1 (stereo not drawn) too.
1

Check CN1C(=O)C2C=CC(C(O)c3c(F)cccc3Cl)N(Nc3ccccc3)C2C1=O (stereo not drawn) too.
1

Check COCCOC(=O)N1C(=O)[C@@]2(c3cc(C#CC4(O)CCCCCC4)ccc31)[C@H](C(=O)N1CCCCCCC1)[C@H]1C(=O)O[C@H](c3ccccc3)[C@H](c3ccccc3)N1[C@@H]2c1ccc(OCCO)cc1 too.
1

Check CC(C)(C)OC(=O)CC[C@]1(C(=O)NCCN2CCOCC2)N=C(c2ccc(OCCCO)cc2)O[C@H]1c1ccccc1 too.
-1

Check CC(C)N1CC=CC23O[C@@H]4C=CCCOC(=O)C4[C@H]2C(=O)N(CCO)[C@@H]3C1=O (stereo partly drawn) too.
-1

Check C=C[C@@H](COC(C)=O)NS(=O)(=O)c1ccc(Br)cc1 too.
1

Check NCCCCCNC(=O)[C@@H]1C[C@@H]2C(=O)N[C@@H](CCCCN)C(=O)N2[C@@H]1c1cccc(OCCO)c1 too.
1

Check C[C@]12C(=O)N(CCCCCCO)[C@@H]3C(=O)N(c4ccc(Cl)cc4)CC=CC31O[C@@H]1/C=C\CCCOC(=O)C12 (stereo partly drawn) too.
-1

Check COC(=O)[C@]1(CCS(=O)(=O)c2ccccc2)N=C(c2ccc(OCCCO)cc2)O[C@@H]1c1ccccc1CN=[N+]=[N-] too.
1

Check CO[C@H]1O[C@H](CO)[C@@H](OC(=O)c2ccc(Br)cc2)[C@@H]2OC(=O)[C@@H](Cc3ccc4ccccc4c3)C/C=C/C[C@H](Cc3ccc4ccccc4c3)C(=O)O[C@@H]12 too.
1

Check COC(=O)[C@@]1(Cc2ccc(F)cc2)[C@H]2c3cc(C(=O)N4CCCC4)n(CCc4c[nH]c5ccc(OC)cc45)c3C[C@H]2CN1C(=O)c1ccccc1 too.
1

Check Cc1ccc(C(C)CC(O)C2C=CC3C(=O)N(c4ccccc4)C(=O)C3N2Nc2ccc(C(C)C)cc2)o1 (stereo not drawn) too.
1

Check O=C1c2ccccc2[C@](Cc2ccccc2I)(C(=O)NCc2ccccc2)[C@H](c2ccc(CO)cc2)N1C1CCCCC1 too.
1

Check C=CCNC(=O)[C@@H]1[C@H]2C(=O)O[C@H](c3ccccc3)[C@H](c3ccccc3)N2[C@H](c2ccc(OCCO)cc2)[C@@]12C(=O)N(C(=O)OCCOC)c1ccc(C#CC3=CCCCC3)cc12 too.
1

Check CC(=O)n1cc(C(O)C2C=CC3C(=O)N(c4ccccc4)C(=O)C3N2Nc2ccccc2)c2ccccc21 (stereo not drawn) too.
1

Check COCCCNC(=O)[C@@H]1c2ccccc2C(=O)N(Cc2ccccc2C(F)(F)F)[C@H]1c1ccc(CO)cc1 too.
-1

Check CCOC(=O)C1=CC[C@@H](c2cc(Cl)ccc2Cl)N(S(=O)(=O)c2ccc(C)cc2)[C@H]1c1ccc(OC)cc1 too.
-1

Check [N-]=[N+]=Nc1ccccc1[C@@H]1OC(c2ccc(OCCCO)cc2)=N[C@]1(CCS(=O)(=O)c1ccccc1)C(=O)NCCN1CCOCC1 too.
1

Check COCCOC(=O)N1C(=O)[C@@]2(c3cc(C#CC4(O)CCCCCC4)ccc31)[C@H](C(N)=O)[C@H]1C(=O)O[C@H](c3ccccc3)[C@H](c3ccccc3)N1[C@@H]2c1ccccc1OCCO too.
1

Check Cc1ccc(S[C@]2(C(=O)NC(C)C)CC(=O)N(C3Cc4ccccc4C3)[C@@H]2c2ccc(CO)cc2I)cc1 too.
-1

Check C=CC[C@@H](OC(=O)Nc1ccc(OC)cc1)c1ccc(OCCO)cc1 too.
-1

Check CC(C)CN1C(=O)[C@@]2(Cc3ccccc31)c1ccccc1C(=O)N(Cc1ccccc1C(F)(F)F)[C@H]2c1ccc(CO)cc1 too.
-1
